Tested on: human dopaminergic neurons (LUHMES cells)
Experiment: Cytotoxicity to mature (d6) LUHMES neurons, calcein-AM & H-33342 high content imaging
Assay type: cell-based
Conditions: mature LUHMES d6, 24 h exposure; listed as Aerugine; read-out: EC50 (half-maximal cytotoxic potency), cell viability
READOUT LABEL: EC50

Q. Lab request: please report EC50 under test system human dopaminergic neurons (LUHMES cells) for OCC1CSC(c2ccccc2O)=N1 (stereo not shown)
A. 3 to 4 µM

* * *

Test: Cytotoxicity to mature (d6) LUHMES neurons, calcein-AM & H-33342 high content imaging
Assay type: cell-based, human
Settings: human, mature LUHMES d6, 24 h exposure; read-out: EC50 (half-maximal cytotoxic potency), cell viability
READOUT LABEL: EC50 at 24 h (µM)
Answers are plain numbers, in µM.

Q. Look up EC50 at 24 h for this compound: OCC1CSC(c2ccccc2O)=N1 (stereo not shown)
A. 4.1

* * *

System: human dopaminergic neurons (LUHMES cells)
Assay: Cytotoxicity to mature (d6) LUHMES neurons, calcein-AM & H-33342 high content imaging
Type: cell-based
Details: d6 LUHMES, 24 h (24 h and 48 h for purified compounds)
READOUT LABEL: cytotoxicity to DAergic neurons (viability)

1) O=CC1CSC(c2ccccc2O)=N1 (centres unmarked) [dhIQS, dihydro-aeruginealdehyde]	all toxicity was lost
2) O=C(O)C1CSC(c2ccccc2O)=N1 (centres unmarked) [DHAA, Dihydroaeruginoic acid, reference compound]	all toxicity was lost

* * *

Test system: other neurons
Test: Toxicity for other neurons (abstract summary)
Format: cell-based
Settings: Homo sapiens, Neuron, read-out: half-maximal toxicity for other neurons
pEC50: −log10 of the molar value.
READOUT LABEL: pEC50

Q. Look up pEC50 for this compound: OCC1CSC(c2ccccc2O)=N1 (stereo not shown) [aerugine]
A. 4.70 to 5.00
